- subjectOfTest: UniProtKB P33261
- Sequence (P33261 whole entry): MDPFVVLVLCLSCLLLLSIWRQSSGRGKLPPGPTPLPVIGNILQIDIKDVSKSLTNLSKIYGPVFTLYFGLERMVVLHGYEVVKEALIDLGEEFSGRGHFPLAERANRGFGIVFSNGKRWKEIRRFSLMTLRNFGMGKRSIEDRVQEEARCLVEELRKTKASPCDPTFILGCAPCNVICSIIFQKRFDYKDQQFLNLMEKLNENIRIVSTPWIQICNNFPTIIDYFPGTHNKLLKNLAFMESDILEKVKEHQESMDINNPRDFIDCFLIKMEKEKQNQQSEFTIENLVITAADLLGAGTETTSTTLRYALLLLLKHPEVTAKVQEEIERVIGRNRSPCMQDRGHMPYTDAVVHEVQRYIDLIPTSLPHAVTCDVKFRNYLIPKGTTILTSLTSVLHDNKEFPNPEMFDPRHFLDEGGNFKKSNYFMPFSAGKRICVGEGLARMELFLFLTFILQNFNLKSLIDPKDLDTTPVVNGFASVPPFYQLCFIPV
- protocolText: Inhibition of human CYP2C19 assessed as residual activity at 10 uM measured after 15 mins relative to control
- Type: ADME
- conditionsUsed: read-out: Activity
metricName: activity at 0.25 h, 10 µM (%)
Reply numerically in %, unit not repeated.

activity at 0.25 h, 10 µM measured on CN(C)C(=O)NCCCN(C)C1=Nc2ccccc2C(CC(=O)NCc2ccc(F)cc2)N1c1ccc(C2CCCCC2)cc1 (stereo unspecified) = 55.8

---

- protocolText: Protein binding in human plasma at 10 uM after 4 hrs
- Type: ADME, cell-free
- conditionsUsed: read-out: PPB (converted)
metricName: fraction unbound at 4 h, 10 µM

CN(C)C(=O)NCCCN(C)C1=Nc2ccccc2C(CC(=O)NCc2ccc(F)cc2)N1c1ccc(C2CCCCC2)cc1 (configuration not stated)    < 0.01

Kindly review the next compound as well.
fraction unbound at 4 h, 10 µM measured on CC(=O)CC(c1ccccc1)c1c(O)c2ccccc2oc1=O (configuration not stated) [WARFARIN] = 0.022
